# Measurement Description: Cytotoxicity against human WI38 cells assessed as decrease in cell proliferation after 72 hrs by MTT reduction assay
# Format: toxicity, cell-based, WI-38
Experimental Readout: IC50 at 72 h (µM)
Write the value in µM as a bare number.

Solved entries (count: 4):
Compound | Experimental Readout | Unit Tag | Observed Value
Cc1sc(N/N=C/c2ccccc2C(=O)O)nc1-c1ccccc1Cl | IC50 at 72 h | µM | 44.6
CC(C)N(/N=C/c1ccccc1C(=O)O)c1nc(-c2ccccc2Cl)cs1 | IC50 at 72 h | µM | 18.8
CCC(C)N(/N=C/c1ccccc1C(=O)O)c1nc(-c2ccccc2Cl)cs1 (stereo not given) | IC50 at 72 h | µM | 8.3
CN(/N=C/c1ccccc1C(=O)O)c1nc(-c2cc(Cl)ccc2Cl)cs1 | IC50 at 72 h | µM | 61

Given the compound CCCC(C)N(/N=C/c1ccccc1C(=O)O)c1nc(-c2ccccc2Cl)cs1 (stereo not given) , what is its reported IC50 at 72 h?
29.1

###

# Measurement Description: Cytotoxicity against human WI38 cells assessed as decrease in cell proliferation after 72 hrs by MTT reduction assay
# Type: toxicity, cell-based, WI-38
Lab note: cut-off is 30 µM. Strictly less in IC50 at 72 h is criterion met. Exactly 30 µM or more is criterion not met.

Solved entries (count: 3):
Molecule | Label Class
CN(/N=C/c1ccccc1C(=O)O)c1nc(-c2ccccc2Cl)cs1 | criterion met
CCN(/N=C/c1ccccc1C(=O)O)c1nc(-c2ccccc2Cl)cs1 | criterion met
CN(/N=C/c1ccccc1C(=O)O)c1nc(-c2cccc(Cl)c2)cs1 | criterion met

hey, is IC50 at 72 h for CCCN(/N=C/c1ccccc1C(=O)O)c1nc(-c2ccccc2Cl)cs1 lower than 30 µM or not?
criterion met

Now the same for Cc1ccc(/C=N/N(C)c2nc(-c3ccccc3Cl)cs2)c(C(=O)O)c1
criterion met

Same for CCCC(C)N(/N=C/c1ccccc1C(=O)O)c1nc(-c2ccccc2Cl)c(C)s1 (stereo not given)
criterion met

###

Recorded IC50 at 72 h values for a group of compounds are listed next.
# Measurement Description: Cytotoxicity against human WI38 cells assessed as decrease in cell proliferation after 72 hrs by MTT reduction assay
# Assay type: toxicity, cell-based, WI-38
I'd appreciate it if you included the unit after the number.

Solved cases (3 shown):
Smiles String | Observed Value
CN(/N=C/c1ccc(C(F)(F)F)cc1C(=O)O)c1nc(-c2ccccc2Cl)cs1 | 60.9 µM
O=C(O)c1ccccc1/C=N/N(CCO)c1nc(-c2ccccc2Cl)cs1 | 48.7 µM
CCc1sc(N/N=C/c2ccccc2C(=O)O)nc1-c1ccccc1Cl | 22.4 µM

Quick one: IC50 at 72 h for Cc1sc(N/N=C/c2ccccc2C(=O)O)nc1-c1ccccc1 ?
21.5 µM

Try this compound too: Cc1ccc(/C=N/N(C)c2nc(-c3ccccc3)c(C)s2)c(C(=O)O)c1
41.8 µM

###

# Target Of Assay: Dihydroorotate dehydrogenase (quinone), mitochondrial (Homo sapiens)
# Sequence (Q02127 whole entry): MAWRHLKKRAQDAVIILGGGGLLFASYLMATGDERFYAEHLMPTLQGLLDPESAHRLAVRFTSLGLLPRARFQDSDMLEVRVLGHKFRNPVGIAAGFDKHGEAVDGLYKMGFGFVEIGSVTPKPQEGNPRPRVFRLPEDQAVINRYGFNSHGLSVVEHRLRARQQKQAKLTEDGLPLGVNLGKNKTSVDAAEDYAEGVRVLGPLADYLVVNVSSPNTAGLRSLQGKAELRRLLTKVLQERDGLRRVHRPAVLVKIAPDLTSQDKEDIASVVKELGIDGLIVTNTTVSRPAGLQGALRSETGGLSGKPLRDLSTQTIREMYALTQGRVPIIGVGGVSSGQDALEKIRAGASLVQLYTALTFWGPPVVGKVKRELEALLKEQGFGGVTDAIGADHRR
# Measurement Description: Inhibition of recombinant human DHODH by DCIP-based assay
// pIC50 lookup, one value per entry
Worth noting: pIC50 values are minus log10 of concentrations stated in mol/L.

Below: 3 molecules and their reported pIC50.
Smiles String | Target Of Assay | pIC50
CCN(/N=C/c1ccccc1C(=O)O)c1nc(-c2ccccc2Cl)cs1 | Dihydroorotate dehydrogenase (quinone), mitochondrial (Homo sapiens) | 7.23
CN(/N=C/c1ccc(F)cc1C(=O)O)c1nc(-c2ccccc2Cl)cs1 | Dihydroorotate dehydrogenase (quinone), mitochondrial (Homo sapiens) | 8.70
O=C(O)c1ccccc1/C=N/N(CCO)c1nc(-c2ccccc2Cl)cs1 | Dihydroorotate dehydrogenase (quinone), mitochondrial (Homo sapiens) | 6.37

Switching to the query record.
For CC(C)N(/N=C/c1ccccc1C(=O)O)c1nc(-c2ccccc2Cl)cs1 , what is its reported pIC50?
7.03

Every entry's value here was drawn from ChEMBL document CHEMBL3861943.
